# Study Target: α-glucosidase (Saccharomyces cerevisiae, UniProt P53341)
# Sequence (P53341 whole entry): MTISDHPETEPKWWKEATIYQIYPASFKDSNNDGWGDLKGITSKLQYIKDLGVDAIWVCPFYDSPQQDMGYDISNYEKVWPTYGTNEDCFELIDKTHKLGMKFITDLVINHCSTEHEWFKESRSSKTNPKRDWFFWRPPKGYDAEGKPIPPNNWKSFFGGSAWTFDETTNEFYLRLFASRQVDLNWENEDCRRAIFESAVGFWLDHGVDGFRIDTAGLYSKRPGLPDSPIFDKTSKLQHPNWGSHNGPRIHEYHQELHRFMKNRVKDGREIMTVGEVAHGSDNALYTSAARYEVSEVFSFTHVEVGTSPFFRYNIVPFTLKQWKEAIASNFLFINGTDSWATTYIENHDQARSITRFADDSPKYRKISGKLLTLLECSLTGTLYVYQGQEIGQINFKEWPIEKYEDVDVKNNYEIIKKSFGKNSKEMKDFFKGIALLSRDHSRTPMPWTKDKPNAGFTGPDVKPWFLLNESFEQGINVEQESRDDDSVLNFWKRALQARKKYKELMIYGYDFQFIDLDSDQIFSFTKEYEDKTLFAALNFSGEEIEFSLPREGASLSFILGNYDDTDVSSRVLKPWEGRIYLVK
# Experimental Protocol: FTIR secondary structure analysis of α-GLU complexes
# Assay Context: enzyme–porphyrin molar ratio 1:2, amide I band
Property Measured: α-Helix
Include the unit after the number when you answer.

So, O=C(O)c1ccc(-c2c3nc(c(-c4ccc(C(=O)O)cc4)c4ccc([nH]4)c(-c4ccc(C(=O)O)cc4)c4nc(c(-c5ccc(C(=O)O)cc5)c5ccc2[nH]5)C=C4)C=C3)cc1.[Ni+2] [Ni–TCPP] ? Its α-Helix was 19.75 ± 0.07%

In plain terms, O=C(O)c1ccc(-c2c3nc(c(-c4ccc(C(=O)O)cc4)c4ccc([nH]4)c(-c4ccc(C(=O)O)cc4)c4nc(c(-c5ccc(C(=O)O)cc5)c5ccc2[nH]5)C=C4)C=C3)cc1 [TCPP] has a documented α-Helix of 22.71 ± 0.05%

# α-Helix of Oc1ccc(-c2c3nc(c(-c4ccc(O)cc4)c4ccc([nH]4)c(-c4ccc(O)cc4)c4nc(c(-c5ccc(O)cc5)c5ccc2[nH]5)C=C4)C=C3)cc1 [THPP] = 21.19 ± 0.05%

Form: compound = Nc1ccc(-c2c3nc(c(-c4ccc(N)cc4)c4ccc([nH]4)c(-c4ccc(N)cc4)c4nc(c(-c5ccc(N)cc5)c5ccc2[nH]5)C=C4)C=C3)cc1 [TAPP] ; α-Helix = 22.82 ± 0.08%

Looking up O=C(O)c1ccc(-c2c3nc(c(-c4ccc(C(=O)O)cc4)c4ccc([nH]4)c(-c4ccc(C(=O)O)cc4)c4nc(c(-c5ccc(C(=O)O)cc5)c5ccc2[nH]5)C=C4)C=C3)cc1.[Cu+2] [Cu–TCPP] , I found its α-Helix recorded as 23.65 ± 0.03%

---

# Experimental Protocol: MTT cytotoxicity assay
# Format: cell-based, human
# Assay Context: human, HepG2 cells, HepG2, 50–100 μg/mL, read-out: cell viability
Property Measured: viability at 24 h

Memo: O=C(O)c1ccc(-c2c3nc(c(-c4ccc(C(=O)O)cc4)c4ccc([nH]4)c(-c4ccc(C(=O)O)cc4)c4nc(c(-c5ccc(C(=O)O)cc5)c5ccc2[nH]5)C=C4)C=C3)cc1 , reported viability at 24 h: > 80%

---

# Study Target: α-glucosidase (Saccharomyces cerevisiae, UniProt P53341)
# Experimental Protocol: Fluorescence quenching, binding and thermodynamics with α-glucosidase
# Assay Context: T 310 K
What Kq was measured for each of the following?

// Oc1ccc(-c2c3nc(c(-c4ccc(O)cc4)c4ccc([nH]4)c(-c4ccc(O)cc4)c4nc(c(-c5ccc(O)cc5)c5ccc2[nH]5)C=C4)C=C3)cc1 [THPP] : Kq value = 6.69 ± 0.04 ×10^12 L/mol/s

Short answer for Nc1ccc(-c2c3nc(c(-c4ccc(N)cc4)c4ccc([nH]4)c(-c4ccc(N)cc4)c4nc(c(-c5ccc(N)cc5)c5ccc2[nH]5)C=C4)C=C3)cc1 [TAPP] : Kq was 5.66 ± 0.02 ×10^12 L/mol/s

The compound listed as O=C(O)c1ccc(-c2c3nc(c(-c4ccc(C(=O)O)cc4)c4ccc([nH]4)c(-c4ccc(C(=O)O)cc4)c4nc(c(-c5ccc(C(=O)O)cc5)c5ccc2[nH]5)C=C4)C=C3)cc1.[Ni+2] [Ni–TCPP] shows Kq equal to 12.31 ± 0.08 ×10^12 L/mol/s

The measured Kq associated with O=C(O)c1ccc(-c2c3nc(c(-c4ccc(C(=O)O)cc4)c4ccc([nH]4)c(-c4ccc(C(=O)O)cc4)c4nc(c(-c5ccc(C(=O)O)cc5)c5ccc2[nH]5)C=C4)C=C3)cc1 [TCPP] reads 4.22 ± 0.09 ×10^12 L/mol/s

Sample O=C(O)c1ccc(-c2c3nc(c(-c4ccc(C(=O)O)cc4)c4ccc([nH]4)c(-c4ccc(C(=O)O)cc4)c4nc(c(-c5ccc(C(=O)O)cc5)c5ccc2[nH]5)C=C4)C=C3)cc1.[Cu+2] [Cu–TCPP] ; Kq observed: 5.05 ± 0.02 ×10^12 L/mol/s
